FYI, the data here is from ChEMBL document CHEMBL1134520.

test.target: Somatostatin receptor type 2 (Homo sapiens, UniProt P30874)
Sequence (P30874 whole entry): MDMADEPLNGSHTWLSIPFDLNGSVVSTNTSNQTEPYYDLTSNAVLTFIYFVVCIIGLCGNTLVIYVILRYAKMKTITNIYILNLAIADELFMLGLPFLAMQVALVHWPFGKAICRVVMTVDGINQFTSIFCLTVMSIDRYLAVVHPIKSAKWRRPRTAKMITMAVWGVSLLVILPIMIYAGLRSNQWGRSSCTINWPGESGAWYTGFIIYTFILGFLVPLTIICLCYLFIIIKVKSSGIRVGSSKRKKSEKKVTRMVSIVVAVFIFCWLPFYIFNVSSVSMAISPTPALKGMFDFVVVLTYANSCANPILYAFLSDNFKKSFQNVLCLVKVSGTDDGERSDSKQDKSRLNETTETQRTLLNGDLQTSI
pIC50: −log10 of the molar value. Bridge positions count the residues as written; N and C are the ends. Square brackets hold non-standard residues; d marks the D form. Peptide text beside a SMILES is read from it. Phe(4-CH2NHiPr) = CC(C)NCc1ccc(C[C@H](N)C(=O)O)cc1
Measured pIC50 by item

Entry "CC(C)NCc1ccc(C[C@@H]2NC(=O)[C@@H](Cc3c[nH]c4ccccc34)NC(=O)[C@H](Cc3ccccc3)NC(=O)[C@H](Cc3ccccc3)NC(=O)[C@@H](NC(=O)[C@@H](N)Cc3ccc(O)cc3)CSSC[C@@H](C(=O)O)NC(=O)[C@H]([C@@H](C)O)NC(=O)[C@H](Cc3ccccc3)NC(=O)[C@H]([C@@H](C)O)NC2=O)cc1" , Somatostatin receptor type 2 (Homo sapiens, UniProt P30874) data, pIC50 value: < 5.00

Entry CC(C)NCc1ccc(C[C@@H]2NC(=O)[C@@H](Cc3c[nH]c4ccccc34)NC(=O)[C@H](Cc3ccccc3)NC(=O)[C@H](Cc3ccccc3)NC(=O)[C@H](CC(N)=O)NC(=O)[C@H](CCCCN)NC(=O)[C@@H](N)CSSC[C@@H](C(=O)O)NC(=O)[C@H](CO)NC(=O)[C@H]([C@@H](C)O)NC(=O)[C@H](Cc3ccccc3)NC(=O)[C@H]([C@@H](C)O)NC2=O)cc1 (H-CKNFF[dW][Phe(4-CH2NHiPr)]TFTSC-OH; disulfide 1-12) , Somatostatin receptor type 2 (Homo sapiens, UniProt P30874) data, pIC50 value: < 6.00

Entry CC(C)NCc1ccc(C[C@@H]2NC(=O)[C@@H](Cc3c[nH]c4ccccc34)NC(=O)[C@H](Cc3ccccc3)NC(=O)[C@@H](NC(=O)[C@@H](N)Cc3ccc(O)cc3)CSSC[C@@H](C(=O)O)NC(=O)[C@H](Cc3ccccc3)NC(=O)[C@H]([C@@H](C)O)NC2=O)cc1 (H-YCF[dW][Phe(4-CH2NHiPr)]TFC-OH; disulfide 2-8) , Somatostatin receptor type 2 (Homo sapiens, UniProt P30874) data, pIC50 value: < 6.00

Entry "CC(C)NCc1ccc(C[C@@H]2NC(=O)[C@@H](Cc3cn(Cc4ccccc4)cn3)NC(=O)[C@H](Cc3ccccc3)NC(=O)[C@H](Cc3ccccc3)NC(=O)[C@H](CCCCN)NC(=O)[C@@H](N)CSSC[C@@H](C(=O)O)NC(=O)[C@H](CO)NC(=O)[C@H]([C@@H](C)O)NC(=O)[C@H](Cc3ccccc3)NC(=O)[C@H]([C@@H](C)O)NC2=O)cc1" , Somatostatin receptor type 2 (Homo sapiens, UniProt P30874) data, pIC50 value: < 6.00

Entry "CC(C)NCc1ccc(C[C@@H]2NC(=O)[C@@H](Cc3ccc4ccccc4c3)NC(=O)[C@H](Cc3ccccc3)NC(=O)[C@H](Cc3ccccc3)NC(=O)[C@H](CCCCN)NC(=O)[C@H](NC(=O)CCc3ccc(O)cc3)CSSC[C@H](C(=O)O)NC(=O)[C@H](CO)NC(=O)[C@H]([C@@H](C)O)NC(=O)[C@H](Cc3ccccc3)NC(=O)[C@H]([C@@H](C)O)NC2=O)cc1" , Somatostatin receptor type 2 (Homo sapiens, UniProt P30874) data, pIC50 value: < 6.00

Entry C[C@@H](O)[C@@H]1NC(=O)[C@H](CCCCN)NC(=O)[C@@H](Cc2c[nH]c3ccccc23)NC(=O)[C@H](Cc2ccccc2)NC(=O)[C@H](Cc2ccccc2)NC(=O)[C@@H](N)CSSC[C@@H](C(=O)O)NC(=O)[C@H](Cc2ccccc2)NC1=O (H-CFF[dW]KTFC-OH; disulfide 1-8) , Somatostatin receptor type 2 (Homo sapiens, UniProt P30874) data, pIC50 value: 7.36

* * *

test.target: Somatostatin receptor type 1 (Homo sapiens, UniProt P30872)
Sequence (P30872 whole entry): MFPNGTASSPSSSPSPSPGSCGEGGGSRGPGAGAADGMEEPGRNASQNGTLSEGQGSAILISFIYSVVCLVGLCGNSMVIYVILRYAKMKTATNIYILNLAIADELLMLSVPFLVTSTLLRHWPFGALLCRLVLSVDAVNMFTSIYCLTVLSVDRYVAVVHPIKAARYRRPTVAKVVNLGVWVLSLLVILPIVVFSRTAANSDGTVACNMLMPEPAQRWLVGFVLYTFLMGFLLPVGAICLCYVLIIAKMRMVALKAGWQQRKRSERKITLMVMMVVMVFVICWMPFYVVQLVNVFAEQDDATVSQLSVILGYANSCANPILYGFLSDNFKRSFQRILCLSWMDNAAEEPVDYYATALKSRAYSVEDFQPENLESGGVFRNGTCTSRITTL
Bridge positions count the residues as written; N and C are the ends. Square brackets hold non-standard residues; d marks the D form. Peptide text beside a SMILES is read from it. Phe(4-CH2NH2) = NCc1ccc(C[C@H](N)C(=O)O)cc1
result.type: IC50 (nM)
Dear colleague, please return just the value in nM, with no unit written.

Entry C[C@@H](O)[C@@H]1NC(=O)[C@H](Cc2ccccc2)NC(=O)[C@H]([C@@H](C)O)NC(=O)[C@H](Cc2ccc(CN)cc2)NC(=O)[C@@H](Cc2c[nH]c3ccccc23)NC(=O)[C@H](Cc2ccccc2)NC(=O)[C@H](Cc2ccccc2)NC(=O)[C@H](CCCCN)NC(=O)[C@@H](N)CSSC[C@@H](C(=O)O)NC(=O)[C@H](CO)NC1=O (H-CKFF[dW][Phe(4-CH2NH2)]TFTSC-OH; disulfide 1-11) , IC50 reported as 309

* * *

Measured pIC50 by item
test.target: Somatostatin receptor type 4 (Homo sapiens, UniProt P31391)
Sequence (P31391 whole entry): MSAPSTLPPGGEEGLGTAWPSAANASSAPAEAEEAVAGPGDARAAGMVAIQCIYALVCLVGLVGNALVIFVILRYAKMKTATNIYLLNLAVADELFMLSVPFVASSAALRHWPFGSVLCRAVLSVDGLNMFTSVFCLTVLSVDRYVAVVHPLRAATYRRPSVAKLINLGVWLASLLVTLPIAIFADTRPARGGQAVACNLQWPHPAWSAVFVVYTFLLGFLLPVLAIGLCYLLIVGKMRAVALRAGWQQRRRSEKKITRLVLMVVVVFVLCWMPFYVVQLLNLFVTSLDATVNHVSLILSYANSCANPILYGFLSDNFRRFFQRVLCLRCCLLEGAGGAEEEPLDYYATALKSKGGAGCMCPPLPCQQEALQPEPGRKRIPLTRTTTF
pIC50: −log10 of the molar value. Numbered stars: 1 amine (or outer) side, 2 acyl side, 3 side chain; on linkers, the order of the positions; unused ones are H or OH. Bridge positions count the residues as written; N and C are the ends. Square brackets hold non-standard residues; d marks the D form. Peptide text beside a SMILES is read from it. Phe(4-CH2NHiPr) = CC(C)NCc1ccc(C[C@H](N)C(=O)O)cc1; X1 = CC(C)CNCc1ccc(C[C@H](N[*:1])C(=O)[*:2])cc1; Phe(4-CH2NH2) = NCc1ccc(C[C@H](N)C(=O)O)cc1; d2Nal = N[C@H](Cc1ccc2ccccc2c1)C(=O)O

Field: example entries. Status: answers known.
1) CC(C)CNCc1ccc(C[C@@H]2NC(=O)[C@@H](Cc3c[nH]c4ccccc34)NC(=O)[C@H](Cc3ccccc3)NC(=O)[C@H](Cc3ccccc3)NC(=O)[C@H](CCCCN)NC(=O)[C@@H](N)CSSC[C@@H](C(=O)O)NC(=O)[C@H](CO)NC(=O)[C@H]([C@@H](C)O)NC(=O)[C@H](Cc3ccccc3)NC(=O)[C@H]([C@@H](C)O)NC2=O)cc1 (H-CKFF[dW][X1]TFTSC-OH; disulfide 1-11)    < 6.00
2) CC(C)NCc1ccc(C[C@@H]2NC(=O)[C@@H](Cc3ccc4ccccc4c3)NC(=O)[C@H](Cc3ccccc3)NC(=O)[C@H](Cc3ccccc3)NC(=O)[C@H](CCCCN)NC(=O)[C@@H](N)CSSC[C@@H](C(=O)O)NC(=O)[C@H](CO)NC(=O)[C@H]([C@@H](C)O)NC(=O)[C@H](Cc3ccccc3)NC(=O)[C@H]([C@@H](C)O)NC2=O)cc1 (H-CKFF[d2Nal][Phe(4-CH2NHiPr)]TFTSC-OH; disulfide 1-11)    < 6.00

Entry C[C@@H](O)[C@@H]1NC(=O)[C@H](Cc2ccccc2)NC(=O)[C@H]([C@@H](C)O)NC(=O)[C@H](Cc2ccc(CN)cc2)NC(=O)[C@@H](Cc2c[nH]c3ccccc23)NC(=O)[C@H](Cc2ccccc2)NC(=O)[C@H](Cc2ccccc2)NC(=O)[C@H](CCCCN)NC(=O)[C@@H](N)CSSC[C@@H](C(=O)O)NC(=O)[C@H](CO)NC1=O (H-CKFF[dW][Phe(4-CH2NH2)]TFTSC-OH; disulfide 1-11) , Somatostatin receptor type 4 (Homo sapiens, UniProt P31391) data, pIC50 value: 6.57

Entry "CNCc1ccc(C[C@@H]2NC(=O)[C@@H](Cc3ccc4ccccc4c3)NC(=O)[C@H](Cc3ccccc3)NC(=O)[C@H](Cc3ccccc3)NC(=O)[C@H](CCCCN)NC(=O)[C@@H](N)CSSC[C@@H](C(=O)O)NC(=O)[C@H](CO)NC(=O)[C@H]([C@@H](C)O)NC(=O)[C@H](Cc3ccccc3)NC(=O)[C@H]([C@@H](C)O)NC2=O)cc1" , Somatostatin receptor type 4 (Homo sapiens, UniProt P31391) data, pIC50 value: < 5.00

Entry C[C@@H](O)[C@@H]1NC(=O)[C@H](CCCCN)NC(=O)[C@@H](Cc2c[nH]c3ccccc23)NC(=O)[C@H](Cc2ccccc2)NC(=O)[C@H](Cc2ccccc2)NC(=O)[C@@H](N)CSSC[C@@H](C(=O)O)NC(=O)[C@H](Cc2ccccc2)NC1=O (H-CFF[dW]KTFC-OH; disulfide 1-8) , Somatostatin receptor type 4 (Homo sapiens, UniProt P31391) data, pIC50 value: 8.89

Entry CC(C)NCc1ccc(C[C@@H]2NC(=O)[C@@H](Cc3c[nH]c4ccccc34)NC(=O)[C@H](Cc3ccccc3)NC(=O)[C@@H](NC(=O)[C@@H](N)Cc3ccc(O)cc3)CSSC[C@@H](C(=O)O)NC(=O)[C@H](Cc3ccccc3)NC(=O)[C@H]([C@@H](C)O)NC2=O)cc1 (H-YCF[dW][Phe(4-CH2NHiPr)]TFC-OH; disulfide 2-8) , Somatostatin receptor type 4 (Homo sapiens, UniProt P31391) data, pIC50 value: < 6.00

* * *

test.target: Somatostatin receptor type 1 (Homo sapiens)
protocol.description: Tested for ability to bind to 20 uM thick cryostat sections of a membrane pellet of cells transfected with human cloned somatostatin (sst) receptor subtype 1.
Numbered stars: 1 amine (or outer) side, 2 acyl side, 3 side chain; on linkers, the order of the positions; unused ones are H or OH. Bridge positions count the residues as written; N and C are the ends. Square brackets hold non-standard residues; d marks the D form. Peptide text beside a SMILES is read from it. X1 = CC(C)CNCc1ccc(C[C@H](N[*:1])C(=O)[*:2])cc1
result.type: IC50 (nM)
Dear colleague, please return just the value in nM, with no unit written.

1) CCN=C(NCC)NCCCC[C@@H]1NC(=O)[C@@H](Cc2c[nH]c3ccccc23)NC(=O)[C@H](Cc2ccccc2)NC(=O)[C@H](Cc2ccccc2)NC(=O)[C@H](CCCCN)NC(=O)[C@@H](N)CSSC[C@@H](C(=O)O)NC(=O)[C@H](CO)NC(=O)[C@H]([C@@H](C)O)NC(=O)[C@H](Cc2ccccc2)NC(=O)[C@H]([C@@H](C)O)NC1=O    450
2) CC(C)CNCc1ccc(C[C@@H]2NC(=O)[C@@H](Cc3c[nH]c4ccccc34)NC(=O)[C@H](Cc3ccccc3)NC(=O)[C@H](Cc3ccccc3)NC(=O)[C@H](CCCCN)NC(=O)[C@@H](N)CSSC[C@@H](C(=O)O)NC(=O)[C@H](CO)NC(=O)[C@H]([C@@H](C)O)NC(=O)[C@H](Cc3ccccc3)NC(=O)[C@H]([C@@H](C)O)NC2=O)cc1 (H-CKFF[dW][X1]TFTSC-OH; disulfide 1-11)    130

Field: next compound
Entry "CC(C)NCc1ccc(C[C@@H]2NC(=O)[C@@H](Cc3ccc4ccccc4c3)NC(=O)[C@H](Cc3ccccc3)NC(=O)[C@H](Cc3ccccc3)NC(=O)[C@H](CCCCN)NC(=O)[C@@H](NC(=O)CCc3ccc(O)cc3)CSSC[C@@H](C(=O)O)NC(=O)[C@H](CO)NC(=O)[C@H]([C@@H](C)O)NC(=O)[C@H](Cc3ccccc3)NC(=O)[C@H]([C@@H](C)O)NC2=O)cc1" , IC50 reported as 563
